- Test system: OVCAR-4 ovarian
- test protocol: NCI-60 one-dose screen, 48 h
- conditions: 10 µM unless noted
This is part of a sample that, as a whole, favours compounds with a hit. Of some 83,000 tested, about 20% had one in any assay. Activity calls are given as the source filed them. Rule for the calls: active = growth percent below 10; inactive = the rest.
Entry note: the call must match one of 1 (active), -1 (inactive)

The examples below pair each entry with its known result.
compound: COC1(OC)C2(Cl)C(Cl)=C(Cl)C1(Cl)C1COCC12 (stereo unspecified)
class: -1
--
compound: CCCCCC/C=C\CCCCCCCCCc1cc(O)cc(OC)c1O
class: 1
--
compound: Cn1c(=O)c2[nH]c(CCCCC(=O)O)nc2n(C)c1=O
class: -1
--
compound: Clc1cccc(Cl)c1C1CSc2ccccc2N=C1c1ccccc1 (stereo unspecified)
class: -1
--
compound: Cc1c(-c2ccc(C3CCCCC3)cc2)nc2ccc(F)cc2c1C(=O)O
class: -1

Consider the record given below.
Request: For this compound, state the assay outcome: CCOC(=O)c1ccc(C(C)(C)C)cc1
Response: -1

----------
- Test system: UO-31 renal
- test protocol: NCI-60 one-dose screen, 48 h (100 = growth as untreated, 0 = no growth, -100 = all killed)
- conditions: 10 µM unless noted
This is part of a sample that, as a whole, favours compounds with a hit. Of some 83,000 tested, about 20% had one in any assay. Active and inactive are the calls of the source. Rule for the calls: active = growth percent below 10; inactive = the rest.
result type: growth

molecule: NS(=O)(=O)c1cc(=O)[nH]c(=O)[nH]1
growth: 100% (inactive)

Request: Which growth is listed for C1CCc2onc(-c3noc4c3CCCCC4)c2CC1 ?
Response: 91.1% (inactive)

Request: Next: CCN(CC)CCN1CNC(=S)NC1
Response: 83.7% (inactive)

----------
- Tested on: T-47D breast
- test protocol: NCI-60 one-dose screen, 48 h (100 = growth as untreated, 0 = no growth, -100 = all killed)
- conditions: 10 µM unless noted
The panel holds about 83,000 compounds, 20% with a hit somewhere; the sample as a whole holds those more often.
result type: growth (%)
Form entry: value (%) — number only.

compound: O=C(CCl)Nc1ccccc1SCc1cc(Cl)cc2c1OCOC2
result type: growth
readout units: %
measurement: 55.9
--
compound: Cc1ccc(S(=O)(=O)NC(=O)NCCSSCCNC(=O)NS(=O)(=O)c2ccc(C)cc2)cc1
result type: growth
readout units: %
measurement: 105
--
compound: ClCC(Cl)[C@@H]1CC2C=CC1C2 (stereo partly specified)
result type: growth
readout units: %
measurement: 98.8

Request: Tell me the measured growth of Nc1nc2nnc(-c3ccccc3)c(-c3ccccc3)n2n1 , please.
Response: 84.7

Request: Another compound to check: CCCCOC(=O)c1ccc(NC(=O)CCl)cc1
Response: 47.2

Request: And the next one, Nc1cccc2cccc(O)c12 ?
Response: 102

Request: Same question, O=C(O)Cc1ccccn1 this time
Response: 110

Request: // next record Oc1cccnc1CN1CCCC1
Response: 95.2

Request: Now consider Nc1nnc2cc(F)ccc2n1 and answer again.
Response: 96

Request: Can you check N#C/C(=C\c1ccc(C#N)cc1)C(=O)c1ccccc1 next?
Response: 65.4

Request: Okay, and CSCCC(NC(=O)C(Cl)Cl)C(=O)O (stereo unspecified) ?
Response: 82.9

Request: Try the compound Cc1ccc(C)c(CCO)c1
Response: 103
